Molecular target: full length human BTLA expressed on cells (human, UniProt Q7Z6A9 31-289); note: test concentration or dose not given here
Experiment: cell-based or functional assay
Collected T cell reporter (NFκB signaling) values appear next to each entry.
Reply numerically in % inhibition, unit not repeated.

{"columns": ["binder", "unit-abbreviation", "T cell reporter (NFκB signaling)"],
 "data": [
  ["15B6 (antibody, IgG1, V domains shown) VH: QVQLQQPGAELVKPGASVKLSCKASGYTFTSYWMHWVKQRPGQGLEWIGMIHPNSGSTNYNEKFKSKATLTVDKSSSTAYMQLSSLTSEDSAVYYCARKRGGLGDYWGQGTSVTVSS VL: DIVLTQSPASLAVSLGQRATISCRASKSVSTSGYSYMHWYQQKPGQPPKLLIYLASNLESGVPARFSGSGSGTDFTLNIHPVEEEDAATYYCQHSRELPYTFGGGTKLEIK", "% inhibition", 21]
]}

# get_value(readout='T cell reporter (NFκB signaling)', item= 11.5.1 D265A (antibody, V domains shown) VH: EVQLQESGPSLVKPSQTLSLTCSVTGDSITSAYWNWIRKFPGNKLEYMGYISYSGSTYFNPSLKSRISITRNTSKNQYYLQLNSVTTEDTATYYCARSHYYGYYFDYWGHGTTLTVSS VL: DIVLTQSPASLAVSLGQRATISCRASETIDSYGDSLMHWYQQKAGQPPKLLIYRASNLESGIPARFSGSGSRTDFTLTINPVEADDVATYYCQQTDEDPYTFGGGTKLEIK )
-13
